target of assay: Nuclear receptor subfamily 1 group I member 2 (Rattus norvegicus)
protocol text: Rat pregnane X receptor (rPXR) activation by small molecules, qHTS assay (AID 1346983); note: % is set by controls: 0 for no effect and ±100 for the full control effect; nearly all actives have a fitted effect of over 20% in size
details: rPXR luciferase reporter cells, One-Glo luminescence, 24 h; hits give high values
Records with an inconclusive call do not appear.
readout kind: max activation (%)
Just the number in %, nothing appended.

Solved entries:
- molecule: "COc1cc(C)c(Cc2cnc(N)nc2N)cc1OC"
  max activation / %: -0.291
- molecule: "NC(=O)c1cc[n+](CC2=C(C(=O)[O-])N3C(=O)[C@@H](NC(=O)Cc4cccs4)[C@H]3SC2)cc1"
  max activation / %: -2.94

Lookup: I would be grateful if you could share the reported max activation for `CC[C@H](NC(C)C)[C@H](O)c1ccc(O)c2[nH]c(=O)ccc12` .
Found: -3.27

Lookup: I would be grateful if you could share the reported max activation for `Nc1ccc(C(=O)Oc2ccccc2)c(O)c1` .
Found: 0.405

Lookup: I would be grateful if you could share the reported max activation for `CCCCCCCCCCCCSCCOCCO` .
Found: -0.35

Lookup: I would be grateful if you could share the reported max activation for `Cc1ccc(NC(=O)c2ccc(CN3CCN(C)CC3)cc2)cc1Nc1nccc(-c2cccnc2)n1` .
Found: -10.6

Lookup: I would be grateful if you could share the reported max activation for CCc1ccc(C(=O)C(C)CN2CCCCC2)cc1 (centres undefined) .
Found: -6.71

Lookup: I would be grateful if you could share the reported max activation for `O=C1c2ccccc2C(=O)c2c1ccc(O)c2O` .
Found: 0.447

Lookup: I would be grateful if you could share the reported max activation for `CCOC(C)OCC` .
Found: -4.85
